Values compiled from ChEMBL document CHEMBL3988442.

# Test System: Shiga toxin 2 (Escherichia coli O157:H7) (UniProt P09385+P09386)
# Procedure Summary: E. coli 0.157:H7 Shiga Toxin SOP - stx2 screening assay
# Type: functional
# Design: scale not given: direction of the effect not stated beside the values
# Condition Notes: 30 µM
Rule: Percent Effect below 10% gives Satisfied, anything at or above gives Not satisfied.

Query string: # check: Percent Effect < 10% for Cc1csc(N2CCN(C(=O)Cc3ccsc3)CC2)n1
Result string: Satisfied

Query string: # check: Percent Effect < 10% for CCCNC(=O)N1CCN(Cc2cc(C)no2)CC1
Result string: Not satisfied

Query string: # check: Percent Effect < 10% for Cc1cc(NC(=O)NCC2CCOC2)no1 (stereo unspecified)
Result string: Satisfied

Query string: # check: Percent Effect < 10% for NCc1cnn(-c2ccccc2C(=O)NCCCn2ccnc2)c1
Result string: Not satisfied

Query string: # check: Percent Effect < 10% for CC1=Nc2c(c(=O)[nH]n2C(C)C)C(c2cccs2)S1 (stereo unspecified)
Result string: Satisfied

====

# Test System: Shiga toxin 2 (Escherichia coli O157:H7) (UniProt P09385+P09386)
# Procedure Summary: E. coli 0.157:H7 Shiga Toxin SOP - stx2 screening assay
# Type: functional
# Parameters: scale not given: direction of the effect not stated beside the values
# Condition Notes: 30 µM
Observed Property: Percent Effect (%)
Unit % implied. Number only.

Consider CN1CC[C@H](c2ccccc2)[C@@H]2[C@H]1CCCCN2C(=O)c1cnccn1 . Its measured Percent Effect is 3.52

Consider CCOCC1CN(Cc2cnn(C)c2)Cc2nn(C)cc21 (configuration not stated) . Its measured Percent Effect is -11.8

Consider Cc1ccc(NC2CCN(C(=O)c3cccn3C)CC2)nn1 . Its measured Percent Effect is -60.3

Consider CC(C)OCCCNC(=O)CN1CCC(N2CCN(C)C2=O)CC1 . Its measured Percent Effect is -14.1

Consider Cn1cnnc1C1CCCN(C(=O)NCc2ccc3c(c2)OCO3)C1 (configuration not stated) . Its measured Percent Effect is 7.83

Consider CCN1C(=O)C(C)(C)c2cc(NC(=O)c3ccco3)ccc21 . Its measured Percent Effect is -25.1

Consider COCCN(Cc1ccc(F)cc1Cl)C(=O)c1ccncc1 . Its measured Percent Effect is 12

Consider O=C(CCc1ccccc1)Nc1ncccc1OC(F)F . Its measured Percent Effect is -5.61

Consider O=C(CCc1cscn1)NS(=O)(=O)c1ccc2ccccc2c1 . Its measured Percent Effect is 11.4

Consider NC(=O)NCC1CCCCN1C(=O)c1cccc(C(F)(F)F)c1 (configuration not stated) . Its measured Percent Effect is 11.1

Consider Cc1csc(N2CCN(C(=O)Cc3ccc(C)s3)CC2)n1 . Its measured Percent Effect is 12.2

Consider CCOC(C)c1nc(CN2CCC(CNC(C)=O)CC2)cs1 (configuration not stated) . Its measured Percent Effect is 3.11

====

# Test System: Aspartate--tRNA(Asp/Asn) ligase (Mycobacterium tuberculosis (strain ATCC 25618 / H37Rv)) (UniProt P9WFW3); note: in the data most compounds retested in dose-response had high values
# Sequence (P9WFW3 whole entry): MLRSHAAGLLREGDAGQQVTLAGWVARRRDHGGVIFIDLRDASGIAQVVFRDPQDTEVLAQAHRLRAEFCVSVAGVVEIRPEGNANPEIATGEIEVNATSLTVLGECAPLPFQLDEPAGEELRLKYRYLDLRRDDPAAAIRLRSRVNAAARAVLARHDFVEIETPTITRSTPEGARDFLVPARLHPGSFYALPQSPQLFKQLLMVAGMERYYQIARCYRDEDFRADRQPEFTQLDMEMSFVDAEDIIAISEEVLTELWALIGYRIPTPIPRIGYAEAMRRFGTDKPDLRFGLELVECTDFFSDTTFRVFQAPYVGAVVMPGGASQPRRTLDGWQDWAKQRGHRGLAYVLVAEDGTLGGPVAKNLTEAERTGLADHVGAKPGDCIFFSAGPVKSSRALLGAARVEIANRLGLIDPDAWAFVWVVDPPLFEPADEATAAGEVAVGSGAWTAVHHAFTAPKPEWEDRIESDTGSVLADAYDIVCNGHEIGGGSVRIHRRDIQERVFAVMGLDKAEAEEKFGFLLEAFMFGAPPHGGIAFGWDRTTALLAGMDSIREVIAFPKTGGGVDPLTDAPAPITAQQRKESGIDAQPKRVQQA
# Procedure Summary: Assay for Asp RNA synthetase-1 from Mycobacterium tuberculosis
# Type: functional
# Set-up: scale not given: direction of the effect not stated beside the values
# Condition Notes: 30 µM
Observed Property: Percent Effect
Just so you know, I need the unit written after the number.

Consider Cc1cc(-c2cnn(CCNC(=O)C3CC3)c2C2CC2)on1 . Its measured Percent Effect is 0.838%

Consider CN(C)c1ncnc2c1CCN(CC1CCOC1)CC2 (configuration not stated) . Its measured Percent Effect is -1.82%

Consider Cn1cc(C(=O)N2CCCC(n3cccn3)C2)c2ccccc21 (configuration not stated) . Its measured Percent Effect is -0.132%

Consider CCN(CC(=O)NC(C)C)S(=O)(=O)N1CCC(C)C1 (configuration not stated) . Its measured Percent Effect is 2.41%

Consider CN(C)CCN1CCC2(CC1)CN(c1cccnc1)C(=O)CO2 . Its measured Percent Effect is 4.6%

Consider Cc1ccc(CNC2CCCc3c2cnn3C)s1 (configuration not stated) . Its measured Percent Effect is -2.88%

Consider O=c1nc(CNc2ccccc2)[nH]n1Cc1ccccc1 . Its measured Percent Effect is 3.89%

Consider Cc1cc(NC(=O)c2nc(N3CCCC3)ncc2Cl)nc(C(C)C)n1 . Its measured Percent Effect is 2.49%

Consider Cc1cccc(NS(=O)(=O)c2cc(C(=O)O)oc2C)c1Cl . Its measured Percent Effect is -1.97%

Consider Cn1ncc2c1C(COCC1CC1)CN(Cc1nccs1)C2 (configuration not stated) . Its measured Percent Effect is 11.3%

Consider COCC(=O)N1Cc2cn(C)nc2C(COc2cccnc2)C1 (configuration not stated) . Its measured Percent Effect is 0.598%

Consider CCC1CCCN(C(=O)Cc2csc(-c3ncccn3)n2)C1 (configuration not stated) . Its measured Percent Effect is 0.456%
